Biological target: T1, huNotch2-EGF6-10 (human, UniProt Q04721 219-418)
T1 construct: also called human Notch2 EGF6-10
T1 sequence: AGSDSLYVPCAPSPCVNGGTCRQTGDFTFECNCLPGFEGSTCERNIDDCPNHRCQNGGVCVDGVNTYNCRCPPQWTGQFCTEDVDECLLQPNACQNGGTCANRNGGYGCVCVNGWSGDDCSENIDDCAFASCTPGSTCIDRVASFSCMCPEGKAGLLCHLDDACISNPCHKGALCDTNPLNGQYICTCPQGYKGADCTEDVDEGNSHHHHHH
Assay: SPR BIAcore, separate experiment, substantially as for Table 4
EXPERIMENTAL_ENDPOINT: koff (s⁻¹)

hu.3107.L1H12 (antibody, V domains shown, also called hu.Notch-3107.L1H12) VH: EVQLVQSGAEVKKPGASVKVSCKASGYTFSNYVIHWVRQAPGQGPEWTGYIIPGSGGTKFNEKFKGRATSTVDTSSTTAYMELSRLRSDDTVVYYCARDGAGSFTYWGQGTLVTVSS VL: DVVMTQSPLSLPVTLGQPASISCRSSQSLVHSDGNTYLHWFQQRPGQSPRLLIYRISNRFSGVPDRFSGSGSGTDFTLKISRVEAEDVGVYYCLQSTHFPDTFGGGTKVEIK :: 0.00542
